Values of IC50 reported for mGluR5 receptor (pig) (Sus scrofa) appear below.
readout name: IC50 (nM)

Item COc1cc2c(cc1OC)CN(C(=O)C#Cc1cccc(Cl)c1)CC2 [Example 11] with mGluR5 receptor (pig) (Sus scrofa) - IC50?
2720

P = CC1c2ccccc2CCN1C(=O)C#Cc1cccc(Cl)c1 (centres unmarked) [Example 18]
Q = O=C(C#Cc1cccc(Cl)c1)N1CCc2ccc(O)cc2C1 [Example 28]
R = O=C(C#Cc1ccccc1)N1CCc2ccccc2C1 [Example 1]
Task for the reader: rank each entry by its IC50, from the minimum upward. Respond with the label ranking, as requested.
P, Q, R
(P: 5.4 nM, Q: 87 nM, R: 180 nM)
